The reported numbers originate from patent US9573957B2.

The listing below reports IC50 for compounds tested on human LTA4 hydrolase (Homo sapiens (Human)).
Sequence (P09960 whole entry): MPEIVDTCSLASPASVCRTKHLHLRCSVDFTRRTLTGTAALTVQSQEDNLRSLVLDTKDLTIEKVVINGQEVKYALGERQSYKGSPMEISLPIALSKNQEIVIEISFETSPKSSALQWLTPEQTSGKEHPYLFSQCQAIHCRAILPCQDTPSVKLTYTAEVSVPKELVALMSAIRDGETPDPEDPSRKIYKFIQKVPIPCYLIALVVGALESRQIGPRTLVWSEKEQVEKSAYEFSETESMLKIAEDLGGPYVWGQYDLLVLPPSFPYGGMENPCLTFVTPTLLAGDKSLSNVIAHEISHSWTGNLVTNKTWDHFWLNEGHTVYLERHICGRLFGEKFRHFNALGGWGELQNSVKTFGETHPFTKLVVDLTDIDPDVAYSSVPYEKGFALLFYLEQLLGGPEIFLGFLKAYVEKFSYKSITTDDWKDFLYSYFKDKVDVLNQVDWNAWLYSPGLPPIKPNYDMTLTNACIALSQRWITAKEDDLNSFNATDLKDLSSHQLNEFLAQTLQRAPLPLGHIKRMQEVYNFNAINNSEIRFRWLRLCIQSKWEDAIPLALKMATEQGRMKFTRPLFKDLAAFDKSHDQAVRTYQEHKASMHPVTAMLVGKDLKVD
Measured Quantity: IC50 (nM)

>>> endpoint_result("CC(=O)N1CCN(C(=O)c2coc3cc(Oc4ccc(-c5ccn[nH]5)cn4)ccc23)CC1")
1.9
>>> endpoint_result("C[C@H](O)C(=O)N1CCN(CCc2coc3cc(Oc4ccc(-c5ccn[nH]5)cn4)ccc23)CC1")
0.86
>>> endpoint_result("O=C1[C@@H](O)CCN1C1CCN(Cc2ccc3cc(Oc4ncc(-c5ccn[nH]5)cn4)ccc3c2)CC1")
1.8
>>> endpoint_result("CC(=O)N1CC(CN(C)Cc2ccc3cc(Oc4ncc(-c5ccn[nH]5)cn4)ccc3c2)C1")
1.1
>>> endpoint_result("CN(C(=O)CO)[C@H]1CCN(Cc2coc3cc(Oc4ccc(-c5ccn[nH]5)cn4)ccc23)C1")
0.56
>>> endpoint_result("O=C1[C@@H](O)CCN1C1CCN(Cc2ccc3cc(Oc4ccc(-c5ccn[nH]5)cn4)ccc3n2)CC1")
0.86
>>> endpoint_result("CC(C)(O)C(=O)N1CCN(CCC2COc3cc(Oc4ccc(-c5ccn[nH]5)cn4)ccc32)CC1 (stereo not shown)")
2.2
